fold shift in potency compared to the hVH1.0, hVL1.0 variant values, listed per item
- target-of-assay: T1, human platelet α2β1 integrin (immobilized on microtiter plates) (human, UniProt P17301 30-1181; P05556 21-798)
- T1 construct: plates custom-coated with human platelet α2β1 by GTI Inc; also called immobilized α2β1 integrin; α2β1-coated plates
- T1 sequence (P17301 30-1181 E534K limits assumed, chain 1 of 2): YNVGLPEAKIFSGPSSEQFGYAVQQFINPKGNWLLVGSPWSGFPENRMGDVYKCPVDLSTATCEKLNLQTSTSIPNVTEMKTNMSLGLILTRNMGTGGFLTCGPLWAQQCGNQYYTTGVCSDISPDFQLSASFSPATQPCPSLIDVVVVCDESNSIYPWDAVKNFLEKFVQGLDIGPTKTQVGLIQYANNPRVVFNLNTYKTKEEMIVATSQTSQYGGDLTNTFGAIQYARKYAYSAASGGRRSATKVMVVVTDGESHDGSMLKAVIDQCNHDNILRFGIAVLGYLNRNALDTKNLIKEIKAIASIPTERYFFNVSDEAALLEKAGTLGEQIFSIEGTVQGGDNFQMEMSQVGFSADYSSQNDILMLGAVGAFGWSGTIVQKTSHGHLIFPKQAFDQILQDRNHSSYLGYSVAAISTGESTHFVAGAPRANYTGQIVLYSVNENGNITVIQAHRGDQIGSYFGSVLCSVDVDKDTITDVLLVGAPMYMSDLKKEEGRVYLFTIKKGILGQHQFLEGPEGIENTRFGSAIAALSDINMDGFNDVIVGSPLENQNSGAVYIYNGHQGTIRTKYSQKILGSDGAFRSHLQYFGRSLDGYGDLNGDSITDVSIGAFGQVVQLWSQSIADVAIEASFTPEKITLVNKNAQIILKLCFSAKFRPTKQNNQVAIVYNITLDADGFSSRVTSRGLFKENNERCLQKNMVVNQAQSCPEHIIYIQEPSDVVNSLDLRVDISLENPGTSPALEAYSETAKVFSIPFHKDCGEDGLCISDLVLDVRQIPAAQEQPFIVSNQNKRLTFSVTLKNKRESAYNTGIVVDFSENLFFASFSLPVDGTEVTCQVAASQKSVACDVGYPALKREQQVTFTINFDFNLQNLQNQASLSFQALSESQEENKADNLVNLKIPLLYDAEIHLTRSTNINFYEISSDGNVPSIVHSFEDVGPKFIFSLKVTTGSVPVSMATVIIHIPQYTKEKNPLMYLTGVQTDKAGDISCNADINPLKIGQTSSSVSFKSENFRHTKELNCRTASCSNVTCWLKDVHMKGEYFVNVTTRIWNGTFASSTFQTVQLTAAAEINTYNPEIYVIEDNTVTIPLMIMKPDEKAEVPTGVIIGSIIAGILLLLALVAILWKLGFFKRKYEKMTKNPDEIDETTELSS
- T1 sequence (P05556 21-798 limits assumed, chain 2 of 2): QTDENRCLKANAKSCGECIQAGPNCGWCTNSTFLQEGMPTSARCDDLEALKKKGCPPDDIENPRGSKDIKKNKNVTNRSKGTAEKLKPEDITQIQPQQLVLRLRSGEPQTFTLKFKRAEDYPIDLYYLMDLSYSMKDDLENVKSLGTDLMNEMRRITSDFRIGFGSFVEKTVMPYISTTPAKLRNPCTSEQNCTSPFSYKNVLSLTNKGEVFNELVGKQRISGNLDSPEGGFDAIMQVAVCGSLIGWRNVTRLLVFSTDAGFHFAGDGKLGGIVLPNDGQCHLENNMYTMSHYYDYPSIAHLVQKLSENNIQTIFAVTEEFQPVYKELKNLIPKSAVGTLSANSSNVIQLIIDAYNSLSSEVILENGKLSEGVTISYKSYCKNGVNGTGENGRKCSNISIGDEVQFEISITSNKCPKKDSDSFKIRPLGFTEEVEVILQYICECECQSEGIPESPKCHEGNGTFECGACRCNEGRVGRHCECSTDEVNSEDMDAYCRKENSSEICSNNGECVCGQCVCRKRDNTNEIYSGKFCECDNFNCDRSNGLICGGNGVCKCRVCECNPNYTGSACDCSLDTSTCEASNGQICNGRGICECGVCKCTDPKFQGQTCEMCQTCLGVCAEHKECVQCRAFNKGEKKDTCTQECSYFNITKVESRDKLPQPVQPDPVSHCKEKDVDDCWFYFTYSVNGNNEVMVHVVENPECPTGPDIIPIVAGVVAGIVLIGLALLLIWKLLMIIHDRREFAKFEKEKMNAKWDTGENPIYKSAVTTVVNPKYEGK
- experimental-protocol: competition with Eu-TMC-2206 on human platelet α2β1-coated plate
Kindly provide the numeric value in fold only, without the unit symbol.

Some solved cases for reference:
# binder, val
records = [
    ("humanized TMC-2206 variant hVH4.0/hVL1.0 (antibody, human IgG1, V domains shown, human IgG1/κ constant regions) VH: QVQLQESGPGLVKPSETLSLTCTVSGFSLTNYGIHWIRQPPGKGLEWIGVIWARGFTNYNSALMSRLTISKDNSKNQVSLKLSSVTAADTAVYFCARANDGVYYAMDYWGQGTLVTVSS VL: QFVLTQSPAFLSVTPGEKVTITCSANSSVNYIHWYQQKPDQAPKKWIYDTSKLASGVPSRFSGSGSGTDYTFTISSLEAEDAATYYCQQWTTNPLTFGQGTKVEIK", 1.3),
    ("humanized TMC-2206 variant hVH3.0/hVL3.0 (antibody, human IgG1, V domains shown, human IgG1/κ constant regions) VH: QVQLQESGPGLVKPSETLSLTCTVSGFSLTNYGIHWVRQPPGKGLEWLGVIWARGFTNYNSALMSRVTISVDTSKNQFSLKLSSVTAADTAVYFCARANDGVYYAMDYWGQGTLVTVSS VL: QFVLTQSPAFLSVTPGEKVTITCSANSSVNYIHWYQQKPDQAPKLLIYDTSKLASGVPSRFSGSGSGTDYTFTISSLEAEDAATYYCQQWTTNPLTFGQGTKVEIK", 631),
]

According to the records, this binder humanized TMC-2206 variant hVH4.0/hVL3.0 (antibody, human IgG1, V domains shown, human IgG1/κ constant regions) VH: QVQLQESGPGLVKPSETLSLTCTVSGFSLTNYGIHWIRQPPGKGLEWIGVIWARGFTNYNSALMSRLTISKDNSKNQVSLKLSSVTAADTAVYFCARANDGVYYAMDYWGQGTLVTVSS VL: QFVLTQSPAFLSVTPGEKVTITCSANSSVNYIHWYQQKPDQAPKLLIYDTSKLASGVPSRFSGSGSGTDYTFTISSLEAEDAATYYCQQWTTNPLTFGQGTKVEIK displays fold shift in potency compared to the hVH1.0, hVL1.0 variant of 4.2
